- Study target: T1, RSV prefusion F (preF), subtype B (respiratory syncytial virus subtype B)
- T1 construct: also called Prefusion subtype B
- Procedure text: BLI, IgG
Reported property: Kd (nM)

| Binder | Result |
| --- | --- |
| ADI-14368 (antibody, V domains shown, full-length IgG; also called Ab 36) VH: EVQLVESGGGLVKPGGSLRLSCAASGFTFINAWMSWVRQAPGKGLEWVGRIKSKADGGTTDDAAPVKGRFTISRDDSKNTLYLQMNSLKIEDTAVYYCATDVLPLYNWNLGWNFDLWGRGTLVTVSS VL: SYVLTQPPSVSVAPGKTARITCGGNNIADKSVHWYQQKPGQAPVLVMYYDTDRPSGIPERFSGFNSGNTATLTISRVEAGDEADYYCQVWDSSSDHVVFGGGTKVTVL | 1.21 |
| ADI-14370 (antibody, V domains shown, full-length IgG; also called Ab 38) VH: EVQLVESGGGVVQPGKSLRLSCAASGFSFSTFAMHWVRQAPGKGLEWVAVISYDGSNKFYADSVKGRFTISRDSSKNTLYLQMNSLRAEDTAVYYCARGGYSSGWYVTHFDYWGQGTLVTVSS VL: QSVLTQPPSASGSPGQSVTISCTGTSSDVGGYNYVSWYQQHPGKAPKLMIYEVSKRPSGVPDRFSGSKSGNTASLTVSGLQAEDEADYYCSSYAGSNNLYVFGTGTKLTVL | 4.18 |
| ADI-24840 (antibody, V domains shown, full-length IgG) VH: EVQLLESGGGLVKPGGSLRLSCAASGFTFSSYSMNWVRQAPGKGLEWVSSISSSSSYIYYADSVKGRFTISRDNAKNSLYLQMNSLRAEDTAVYYCARDQVYSYGYYFDYWGQGTLVTVSS VL: QSVLAQPPSVSGAPGQRVTISCTGSSSNIGAGYDVHWYQQLPGTAPKLLIYGNSNRPSGVPDRFSGSKSGTSASLAITGLQAEDEADYYCQSYDSSLSGSHVVFGGGTKLTVL | 7.8 |

Reference source for all entries: patent US20260258115A1
